Assay: CCTE_Shafer_MEA_dev_firing_rate_mean: CCTE's Neural Network Formation Assay for Mean Firing Rate, Shafer Lab (AID 2284031);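 note: AUC of well mean spike rate recorded on DIV 5 7 9 and 12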
Activity calls are given as the source filed them. Rule for the calls: active = hit-call score of the fitted dose curve at least 0.9, where 1 is the maximum; inactive = score below 0.9.
Labels: yes for active, no for inactive

[[record]]
molecule = "CCCCCC(C)(CC)C(=O)NC (configuration not stated)"
classification = "no"

[[record]]
molecule = "[O]=[V]([OH])([OH])[OH]"
classification = "no"

[[record]]
molecule = "CCCCCC=C(C)C(CC)CCO (configuration not stated)"
classification = "no"

[[record]]
molecule = "c1cc2c3c(c1)ccc1cccc(c13)C2"
classification = "no"

[[record]]
molecule = "c1ccc2c(c1)ccc1c3ccccc3ccc21"
classification = "no"

[[record]]
molecule = "C[C@@H]1CC[C@@H](C(C)(C)O)[C@H](O)C1"
classification = "no"

[[record]]
molecule = "CCc1ccccc1"
classification = "no"

[[record]]
molecule = "O=C1CC2(CCCC2)CC(=O)N1CCCCN1CCN(c2ncccn2)CC1"
classification = "no"

[[record]]
molecule = "CC(CNC(=S)[S-])NC(=S)[S-].[Zn+2] (configuration not stated)"
classification = "yes"

[[record]]
molecule = "CC(C)O"
classification = "no"

[[record]]
molecule = "Cc1[nH]n(C)c(=O)c1C(=O)c1ccc(C(F)(F)F)cc1S(C)(=O)=O"
classification = "no"

[[record]]
molecule = "Brc1cc(Br)c(Oc2cc(Br)c(Br)cc2Br)cc1Br"
classification = "no"


* * *

Target: Cellular tumor antigen p53 (Homo sapiens) (UniProt P04637)
Sequence (P04637 whole entry, looked up): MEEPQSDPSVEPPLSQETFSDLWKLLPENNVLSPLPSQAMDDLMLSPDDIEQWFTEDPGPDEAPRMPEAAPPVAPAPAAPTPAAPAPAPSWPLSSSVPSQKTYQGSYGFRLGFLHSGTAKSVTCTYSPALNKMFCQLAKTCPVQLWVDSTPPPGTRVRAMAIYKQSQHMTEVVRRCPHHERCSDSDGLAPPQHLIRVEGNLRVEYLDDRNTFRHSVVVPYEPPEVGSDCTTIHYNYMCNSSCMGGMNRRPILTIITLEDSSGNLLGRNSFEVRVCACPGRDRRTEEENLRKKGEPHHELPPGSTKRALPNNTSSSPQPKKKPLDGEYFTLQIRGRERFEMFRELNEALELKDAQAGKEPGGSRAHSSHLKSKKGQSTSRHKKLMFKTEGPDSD
Experiment: TOX21_p53_BLA_p3_ratio: Tox21 HCT-116 p53 Agonism Beta-lactamase Assay, Ratio, Phase 3 (AID 2283596)
Inconclusive results are not listed. Activity calls are given as the source filed them. Rule for the calls: active = hit-call score of the fitted dose curve at least 0.9, where 1 is the maximum; inconclusive = response in the unintended direction; inactive = score below 0.9.
value_kind: AC50

[[record]]
input_smiles = "C=CC(=O)[O-].C=CC(=O)[O-].[Zn+2]"
tested_system = "Cellular tumor antigen p53 (Homo sapiens) (UniProt P04637)"
value_kind = "AC50"
result = "inactive"

[[record]]
input_smiles = "[O]=[Bi][O][Bi]=[O]"
tested_system = "Cellular tumor antigen p53 (Homo sapiens) (UniProt P04637)"
value_kind = "AC50"
result = "inactive"

[[record]]
input_smiles = "CO/N=C(\\C(=O)N[C@@H]1C(=O)N2C(C(=O)O)=C(CSc3nc(C)c(CC(=O)O)s3)CS[C@H]12)c1csc(N)n1"
tested_system = "Cellular tumor antigen p53 (Homo sapiens) (UniProt P04637)"
value_kind = "AC50"
result = "inactive"

[[record]]
input_smiles = "O=P(O)(O)OP(=O)(O)OP(=O)(O)O"
tested_system = "Cellular tumor antigen p53 (Homo sapiens) (UniProt P04637)"
value_kind = "AC50"
result = "inactive"

[[record]]
input_smiles = "CC[C@]12CCCN3CCc4c(n(c5ccccc45)C(=O)C1)[C@@H]32"
tested_system = "Cellular tumor antigen p53 (Homo sapiens) (UniProt P04637)"
value_kind = "AC50"
result = "4.33 µM (active)"

[[record]]
input_smiles = "O=c1c(O)c(O)c1=O"
tested_system = "Cellular tumor antigen p53 (Homo sapiens) (UniProt P04637)"
value_kind = "AC50"
result = "inactive"

[[record]]
input_smiles = "O=C(O)CC/C=C\\CC[C@@H]1[C@@H](N2CCCCC2)[C@@H](O)C[C@@H]1OCc1ccc(-c2ccccc2)cc1"
tested_system = "Cellular tumor antigen p53 (Homo sapiens) (UniProt P04637)"
value_kind = "AC50"
result = "inactive"

[[record]]
input_smiles = "CCCCCCCCCCCCCCCC(=O)O[C@@H]1CC(C)=C(/C=C/C(C)=C/C=C/C(C)=C/C=C/C=C(C)/C=C/C=C(C)/C=C/C2=C(C)C[C@@H](OC(=O)CCCCCCCCCCCCCCC)CC2(C)C)C(C)(C)C1"
tested_system = "Cellular tumor antigen p53 (Homo sapiens) (UniProt P04637)"
value_kind = "AC50"
result = "inactive"

[[record]]
input_smiles = "C[n+]1ccn(Cc2ccccc2)c1"
tested_system = "Cellular tumor antigen p53 (Homo sapiens) (UniProt P04637)"
value_kind = "AC50"
result = "inactive"

[[record]]
input_smiles = "NC(=O)Nc1nc2ccccc2[nH]1"
tested_system = "Cellular tumor antigen p53 (Homo sapiens) (UniProt P04637)"
value_kind = "AC50"
result = "inactive"

